Exercise: for every item that follows, state its recorded eβG activity (%) with 50 μM compound.
- Tested target: E. coli β-glucuronidase (eβG) (Escherichia coli)
- Construct: histidine tag (N); made in house; host or cells: E. coli BL21 (DE3)
- Assay details: In vitro βG-activity assay (pNPG hydrolysis), eβG
- Type: biochemical
- Condition label: 50 μM compound, pH 7.3, percent of activity vs untreated control
Give bare numbers, in %.

{"columns": ["Compound", "eβG activity (%) with 50 μM compound"],
 "data": [
  ["Cc1cccc(C(=O)NC2(C(F)(F)F)C(=O)Nc3c2c(=O)[nH]c(=O)n3-c2ccc(Cl)cc2)c1 (stereo not shown)", 17.66],
  ["O=C(NC(NCc1ccco1)C(Cl)(Cl)Cl)c1ccc(Br)cc1 (stereo not shown)", 33.83],
  ["CCN1C(=O)c2cccc3c(S(=O)(=O)N4CCN(C)CC4)ccc1c23", 45.94]
]}

Please turn your attention to the following entry.
Q. Any idea what eβG activity (%) with 50 μM compound was measured for `Cc1ccc(Cl)cc1NC1=NS(=O)(=O)c2ccccc21` ?
A. 11.11

---

I'd be grateful if you could share measured eβG activity (%) with 50 μM compound for these entries.
- Tested target: E. coli β-glucuronidase (eβG) (Escherichia coli, UniProt P05804)
- Construct: histidine tag (N); made in house; host or cells: E. coli BL21 (DE3)
- Sequence (P05804 whole entry): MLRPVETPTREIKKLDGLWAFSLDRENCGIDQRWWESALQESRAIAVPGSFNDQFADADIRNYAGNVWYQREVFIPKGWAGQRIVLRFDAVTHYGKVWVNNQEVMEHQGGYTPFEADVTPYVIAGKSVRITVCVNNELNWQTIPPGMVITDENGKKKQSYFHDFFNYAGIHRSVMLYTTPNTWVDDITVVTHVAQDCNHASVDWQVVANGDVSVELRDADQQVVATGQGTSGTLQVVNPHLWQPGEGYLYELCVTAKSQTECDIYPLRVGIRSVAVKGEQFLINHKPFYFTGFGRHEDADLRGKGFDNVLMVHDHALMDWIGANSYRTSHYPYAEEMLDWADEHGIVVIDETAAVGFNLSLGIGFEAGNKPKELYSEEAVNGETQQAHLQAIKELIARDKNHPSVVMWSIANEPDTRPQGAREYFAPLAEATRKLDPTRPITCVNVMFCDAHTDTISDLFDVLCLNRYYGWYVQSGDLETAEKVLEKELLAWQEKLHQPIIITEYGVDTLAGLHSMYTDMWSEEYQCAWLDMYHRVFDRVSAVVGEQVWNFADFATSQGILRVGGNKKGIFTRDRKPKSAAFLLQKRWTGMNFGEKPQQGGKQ
- Assay details: In vitro βG-activity assay (pNPG hydrolysis), eβG
- Type: biochemical
- Condition label: 50 μM compound, pH 7.3, percent of activity vs untreated control
One number for each entry, in %.

Reference set, count: 3
{"columns": ["Molecule", "eβG activity (%) with 50 μM compound"],
 "data": [
  ["COc1cc2ccccc2cc1C(=O)N1CCN(C)CC1 [Compound 0030]", 58.19],
  ["CCN1CCN(S(=O)(=O)c2cccc(Cl)c2)CC1 [Compound 9572]", 42.66],
  ["COc1cc(C(=O)OC(C)CN2CCN(C)CC2)cc(OC)c1OC (centres unmarked) [Compound 3250]", 33.62]
]}

Give one value of eβG activity (%) with 50 μM compound per listed molecule.
1. COc1cc(C(=O)N2CCNCC2)cc(OC)c1OC [Compound 6368]
2. Cc1cc(NS(=O)(=O)c2ccc(NC(=O)C(C)Oc3ccc(Cl)cc3Cl)cc2)no1 (centres unmarked) [Compound 8889]
3. O=[N+]([O-])C12CNCC([N+](=O)[O-])(CNC1)C2 [Compound 8013b]
4. N#Cc1cc2[nH]c(=O)c(=O)[nH]c2cc1[N+](=O)[O-] [Compound 5012]

A.
1: 44.87; 2: 11.40; 3: 32.91; 4: 14.96

---

- Tested target: human βG (hβG) (Homo sapiens, UniProt P08236)
- Construct: histidine tag (N); made in house; host or cells: E. coli BL21 (DE3)
- Sequence (P08236 23-651): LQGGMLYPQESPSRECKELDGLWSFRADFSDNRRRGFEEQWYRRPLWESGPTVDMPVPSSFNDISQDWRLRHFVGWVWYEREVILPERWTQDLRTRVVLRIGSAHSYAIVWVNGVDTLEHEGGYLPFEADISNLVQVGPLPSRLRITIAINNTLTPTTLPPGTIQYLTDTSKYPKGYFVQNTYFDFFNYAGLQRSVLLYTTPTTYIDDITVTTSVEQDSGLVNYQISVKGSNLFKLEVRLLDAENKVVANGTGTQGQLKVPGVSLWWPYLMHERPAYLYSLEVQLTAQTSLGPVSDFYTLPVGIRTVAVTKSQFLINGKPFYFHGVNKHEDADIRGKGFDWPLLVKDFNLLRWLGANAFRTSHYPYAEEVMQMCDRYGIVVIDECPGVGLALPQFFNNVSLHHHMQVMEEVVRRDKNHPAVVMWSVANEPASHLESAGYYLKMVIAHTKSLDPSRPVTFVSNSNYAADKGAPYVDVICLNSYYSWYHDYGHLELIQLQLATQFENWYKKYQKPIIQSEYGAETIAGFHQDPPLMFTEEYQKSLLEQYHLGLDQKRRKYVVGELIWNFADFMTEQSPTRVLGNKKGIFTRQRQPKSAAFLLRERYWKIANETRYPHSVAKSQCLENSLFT
- Assay details: In vitro βG-activity assay (pNPG hydrolysis), hβG
- Assay type: biochemical
- Condition label: pH 5.4, percent of activity vs untreated control
For each of the molecules below, state its hβG activity (%) with 50 μM compound.
Give bare numbers, in %.

{"columns": ["Molecule", "hβG activity (%) with 50 μM compound"],
 "data": [
  ["Cc1ccc(Cl)cc1NC1=NS(=O)(=O)c2ccccc21 [Compound 1448]", 109.67],
  ["COc1cc(C(=O)OC(C)CN2CCN(C)CC2)cc(OC)c1OC (stereo not shown) [Compound 3250]", 96.94],
  ["CC(CNS(=O)(=O)c1ccc(Cl)cc1)n1cncn1 (stereo not shown) [Compound 3379]", 102.56],
  ["O=C(O)C1CC=CCC1C(=O)Nc1ccc(Br)c2cccnc12 (stereo not shown) [Compound 5244]", 44.38]
]}

For each entry beneath this line, provide reported hβG activity (%) with 50 μM compound.
1. COc1cc(C(=O)NCC(=N)N)cc(OC)c1OC [Compound 0015]
2. O=C1c2ccccc2C(=O)c2c1cccc2S(=O)(=O)Nc1ccc(Cl)cc1 [Compound 8074]
3. Cc1cccnc1NCn1c(=O)oc2cc([N+](=O)[O-])ccc21 [Compound 3043]
4. CC1=C(C)CC(C(=O)Nc2c(C)cccc2C)C(C(=O)O)C1 (stereo not shown) [Compound 5259]

A.
1. 108.51
2. 109.09
3. 103.55
4. 106.20

Value sought for every listed molecule: hβG activity (%) with 50 μM compound.
1. N=c1c(Nc2ccc(F)cc2)nnc(N)n1C(=O)c1ccccc1 [Compound 2074]
2. N=c1c2sc3nc4ccccc4n3c2ncn1N [Compound 6015]

A.
[101.07, 72.07]

Each recorded value in this set is attributed to paper PMC4370192.
